- measuredTarget: T1, H198P/K243D E. coli DegS (residues 27-355) (E. coli, UniProt P0AEE3 27-355, H198P | K243D)
- T1 sequence (looked up): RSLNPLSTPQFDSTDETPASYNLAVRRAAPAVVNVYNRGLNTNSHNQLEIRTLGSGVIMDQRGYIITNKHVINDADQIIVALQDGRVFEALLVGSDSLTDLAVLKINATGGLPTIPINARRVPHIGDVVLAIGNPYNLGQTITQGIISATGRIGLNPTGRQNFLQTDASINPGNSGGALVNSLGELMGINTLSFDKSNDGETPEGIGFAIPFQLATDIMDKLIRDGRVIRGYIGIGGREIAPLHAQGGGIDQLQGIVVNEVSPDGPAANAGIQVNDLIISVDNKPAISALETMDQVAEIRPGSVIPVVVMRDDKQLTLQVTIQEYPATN
- protocolDetails: fluorescence polarisation
Where no end group is shown, it is not given here. fluorescein = fluorescein-β-alanine label at the N-terminus; βAla = NCCC(=O)O
readoutKind: Kd
The reply should consist of the numeric value with the unit placed after it.

Data request: Using the record for {fluorescein-βAla}-KKDNRDGNYYF [fluorescein-β-alanine-KKDNRDGNYYF OMP peptide] , report its Kd.
Data returned: 680 nM
